Data credit: patent US20170044208A1

pEC50 listing for selected molecules.
Biological target: Glucocorticoid Receptor (GR) (Homo sapiens, UniProt P04150)
Construct: Cells were transfected the next day with MMTV-Luc (5 μg) and pGL4-hRLuc (0.1 μg); endogenous in cells
Sequence (P04150 1-777): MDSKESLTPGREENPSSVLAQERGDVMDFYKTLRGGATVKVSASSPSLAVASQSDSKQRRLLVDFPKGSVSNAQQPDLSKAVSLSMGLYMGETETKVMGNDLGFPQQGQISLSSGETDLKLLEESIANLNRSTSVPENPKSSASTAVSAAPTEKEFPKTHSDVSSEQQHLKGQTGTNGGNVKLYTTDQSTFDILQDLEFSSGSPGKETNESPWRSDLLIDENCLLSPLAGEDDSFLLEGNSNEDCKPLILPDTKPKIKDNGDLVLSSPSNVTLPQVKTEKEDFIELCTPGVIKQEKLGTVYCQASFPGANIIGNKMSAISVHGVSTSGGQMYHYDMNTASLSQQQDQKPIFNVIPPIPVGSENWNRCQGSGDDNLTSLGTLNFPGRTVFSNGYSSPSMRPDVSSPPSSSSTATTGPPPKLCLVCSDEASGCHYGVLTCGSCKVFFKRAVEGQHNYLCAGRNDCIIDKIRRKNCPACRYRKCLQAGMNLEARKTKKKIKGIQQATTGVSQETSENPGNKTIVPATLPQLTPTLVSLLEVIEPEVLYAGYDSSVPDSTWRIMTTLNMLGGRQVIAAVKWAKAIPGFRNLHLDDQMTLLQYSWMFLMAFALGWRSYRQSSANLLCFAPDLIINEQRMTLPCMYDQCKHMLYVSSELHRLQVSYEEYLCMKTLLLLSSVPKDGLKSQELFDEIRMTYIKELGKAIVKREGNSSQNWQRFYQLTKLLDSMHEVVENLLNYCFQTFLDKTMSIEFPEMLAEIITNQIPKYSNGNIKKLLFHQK
Assay: Transactivation assay (MMTV-Luc reporter in HeLa cells)
Conditions: concentration for half-maximal transactivation; HeLa, MMTV-Luc, 16 hours; mean; read-out: TA EC50
Remember, pEC50 is on a log scale: it is -log10 of the molar concentration.

Query string: If you can, please state the reported pEC50 value of C[C@@H]1C[C@H]2[C@@H]3CCC4=CC(=O)C=C[C@]4(C)[C@@]3(F)[C@@H](O)C[C@]2(C)[C@@]1(O)C(=O)NCCOc1ccncc1 [Compound 12] .
Result string: 6.14

Query string: Entry under review: COc1ccc(CCCNC(=O)[C@@]2(O)[C@H](C)C[C@H]3[C@@H]4CCC5=CC(=O)C=C[C@]5(C)[C@@]4(F)[C@@H](O)C[C@@]32C)cc1OC [Compound 13] . Reported pEC50?
Result string: 6.72

Query string: Which pEC50 value belongs to COc1ccc(OCCCNC(=O)[C@@]2(O)[C@H](C)C[C@H]3[C@@H]4CCC5=CC(=O)C=C[C@]5(C)[C@@]4(F)[C@@H](O)C[C@@]32C)cc1OC [Compound 16] ?
Result string: 6.06

Next:
Query string: Which pEC50 value belongs to C[C@@H]1C[C@H]2[C@@H]3CCC4=CC(=O)C=C[C@]4(C)[C@@]3(F)[C@@H](O)C[C@]2(C)[C@@]1(O)c1csc(NC(=O)c2cncs2)n1 [Compound 35] ?
Result string: 5.38

Query string: # input molecule: C[C@@H]1C[C@H]2[C@@H]3CCC4=CC(=O)C=C[C@]4(C)[C@@]3(F)[C@@H](O)C[C@]2(C)[C@@]1(O)C(=O)NCCCOc1ccc(F)cc1 [Compound 6] ; wanted: its pEC50
Result string: 6.05
